Assay: Functional stability in human plasma read out by 12G5 competition
Type: in vitro ADME
Settings: human, plasma, 20 µM in pooled human plasma, 37 °C; from areas under inhibition curves; read-out: half-life t1/2 in plasma from AUC
Ends that are not written are not given here.

BIOPOLYMER_SEQUENCE	half-life at 20 µM, min
IVRWSKKVPCVS [EPI-X4 WSC02]	9.7

---

A collection of sequences and their measured pKi
Target: CXCR4 (Homo sapiens)
Sequence (P61073 whole entry): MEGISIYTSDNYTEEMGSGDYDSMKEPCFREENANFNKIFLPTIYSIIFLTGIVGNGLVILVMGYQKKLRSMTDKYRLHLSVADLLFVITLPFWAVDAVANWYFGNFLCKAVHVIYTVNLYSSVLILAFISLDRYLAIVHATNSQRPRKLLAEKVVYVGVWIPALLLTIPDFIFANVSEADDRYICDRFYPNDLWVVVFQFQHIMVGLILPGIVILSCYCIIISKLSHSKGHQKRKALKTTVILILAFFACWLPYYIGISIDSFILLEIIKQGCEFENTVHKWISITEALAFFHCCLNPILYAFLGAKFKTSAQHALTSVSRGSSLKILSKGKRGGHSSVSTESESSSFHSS
Experiment: 12G5 antibody competition assay on SupT1 cells
Assay type: binding
Conditions: calculated from IC50 12G5 by Cheng-Prusoff, Kd of 12G5 151.5 pM
pKi: −log10 of the molar value. Ends that are not written are not given here.
EXPERIMENTAL_ENDPOINT: pKi

BIOPOLYMER_SEQUENCE	ENDPOINT_VALUE
LVRYTKKVPQVSTPTL [EPI-X4]	6.17
IVRWSKKVPCVS [EPI-X4 WSC02]	6.95

---

Experiment: Functional stability in human plasma read out by 12G5 competition
Format: in vitro ADME
Conditions: human, plasma, 20 µM in plasma of an individual donor, 37 °C; read-out: half-life t1/2 in plasma
Where a name gives a salt, the structure may show the parent alone.

COMPOUND	half-life at 20 µM
c1cc(CN2CCCNCCNCCCNCC2)ccc1CN1CCCNCCNCCCNCC1 [AMD3100, AMD3100 octahydrochloride hydrate]	> 1440 min

---

Experiment: Functional stability in human plasma read out by 12G5 competition
Format: in vitro ADME
Conditions: human, plasma, 20 µM in pooled human plasma (6 donors), 37 °C; from IC50 relative to t = 0, one-phase decay; read-out: half-life t1/2 in plasma
Ends that are not written are not given here.
EXPERIMENTAL_ENDPOINT: half-life at 20 µM (min)

BIOPOLYMER_SEQUENCE	ENDPOINT_VALUE
LVRYTKKVPQVSTPTL [EPI-X4]	23
IVRWSKKVPCVS [EPI-X4 WSC02]	9.7
